Data provenance is patent US20260373248A1.

Catalogue of mean percent encapsulation of RNA readings, one per entry.
# Tested on: mRNA
# procedure_details: mRNA encapsulation (modified Quant-iT RiboGreen assay)
# Format: physicochemical
# setup_conditions: RiboGreen, without vs with Triton X-100
Starred links: 1 amine or outer side, 2 acyl side, 3 side chain; linkers in the order of their positions; H or OH if unused. Non-standard residues stand in square brackets, D forms with d. Residues, ends and D or L forms follow the SMILES beside them. *: point of attachment. N(3-lauroyloxypropyl)Gly = CCCCCCCCCCCC(=O)OCCCNCC(=O)O; Gly(N-(CH2)3O-octanoyl) = CCCCCCCC(=O)OCCCNCC(=O)O; N(3-imidazol-1-ylpropyl)Gly = O=C(O)CNCCCn1ccnc1; Gly(N-3-morpholinopropyl) = O=C(O)CNCCCN1CCOCC1; N(2-ethylhexyl)Gly = CCCCC(CC)CNCC(=O)O; X1 = CCCCC(CC)CSSCCN(CC(=O)[*:2])[*:1]; Gly(N-dodecyl) = CCCCCCCCCCCCNCC(=O)O; For = O=C*
Quick note: unit goes after the number.

# compound, assay_endpoint, observed
data = [
    ("CCCCCCCCCCCCN(C=O)CC(=O)N(CCCOC(=O)CCCCCCCCCCC)CC(=O)N(CC(=O)N(CCCn1ccnc1)CC(=O)N(CC(=O)N(CCCOC(=O)CCCCCCCCCCC)CC(=O)N(CCCCCCCCCCCC)CC(N)=O)CC(CC)CCCC)CC(CC)CCCC (centres unmarked) [Compound 85] (For-[Gly(N-dodecyl)][N(3-lauroyloxypropyl)Gly][N(2-ethylhexyl)Gly][N(3-imidazol-1-ylpropyl)Gly][N(2-ethylhexyl)Gly][N(3-lauroyloxypropyl)Gly][Gly(N-dodecyl)]-NH2)", "mean percent encapsulation of RNA", "0.0%"),
]

[in] Give reported mean percent encapsulation of RNA for CCCCCCCC(=O)OCCCN(C=O)CC(=O)N(CCCOC(=O)CCCCCCC)CC(=O)N(CCSSCC(CC)CCCC)CC(=O)N(CCCN1CCOCC1)CC(=O)N(CCSSCC(CC)CCCC)CC(=O)N(CCCOC(=O)CCCCCCC)CC(=O)N(CCCOC(=O)CCCCCCC)CC(N)=O (centres unmarked) [Compound 133] (For-[Gly(N-(CH2)3O-octanoyl)][Gly(N-(CH2)3O-octanoyl)][X1][Gly(N-3-morpholinopropyl)][X1][Gly(N-(CH2)3O-octanoyl)][Gly(N-(CH2)3O-octanoyl)]-NH2) (mRNA)
[out] 86.7%

###

# System: mRNA
# procedure_details: mRNA encapsulation (modified Quant-iT RiboGreen assay)
# Type: physicochemical
# setup_conditions: RiboGreen, without vs with Triton X-100
Starred links: 1 amine or outer side, 2 acyl side, 3 side chain; linkers in the order of their positions; H or OH if unused. Non-standard residues stand in square brackets, D forms with d. Residues, ends and D or L forms follow the SMILES beside them. *: point of attachment. Gly(N-(3-decanoyloxypropyl)) = CCCCCCCCCC(=O)OCCCNCC(=O)O; N(3-lauroyloxypropyl)Gly = CCCCCCCCCCCC(=O)OCCCNCC(=O)O; Gly(N-(CH2)3O-octanoyl) = CCCCCCCC(=O)OCCCNCC(=O)O; N(3-imidazol-1-ylpropyl)Gly = O=C(O)CNCCCn1ccnc1; Gly(N-3-morpholinopropyl) = O=C(O)CNCCCN1CCOCC1; X5 = CCCCC(CC)C(=O)OCCCCCCN(CC(=O)[*:2])[*:1]; N(2-ethylhexyl)Gly = CCCCC(CC)CNCC(=O)O; X1 = CCCCC(CC)CSSCCN(CC(=O)[*:2])[*:1]; Gly(N-dodecyl) = CCCCCCCCCCCCNCC(=O)O; N(CH(CH2OH)2)Gly = O=C(O)CNC(CO)CO; N(octyl)Gly = CCCCCCCCNCC(=O)O; NDecylGly = CCCCCCCCCCNCC(=O)O; NHexGly = CCCCCCNCC(=O)O; For = O=C*
So basically: is mean percent encapsulation of RNA under 80%? Then yes (1). Not under? Then no (0).

Use these answered entries as a reference point.
# compound, measured_on, classification
rows = [
    ("CCCCCCCCCCCCN(CC(=O)N(CC(N)=O)CC(CC)CCCC)C(=O)CN(CCCCCCCC)C(=O)CN(CC(CC)CCCC)C(=O)CN(CCCCCCOC(=O)C(CC)CCCC)C(=O)CN(CCCCCCCC)C(=O)CNC(CO)CO (stereo not shown) [Compound 31] (H-[N(CH(CH2OH)2)Gly][N(octyl)Gly][X5][N(2-ethylhexyl)Gly][N(octyl)Gly][Gly(N-dodecyl)][N(2-ethylhexyl)Gly]-NH2)", "mRNA", "no (0)"),
    ("CCCCCCCCCCCCN(C=O)CC(=O)N(CCCOC(=O)CCCCCCCCC)CC(=O)N(CC(=O)N(CCCN1CCOCC1)CC(=O)N(CC(=O)N(CCCOC(=O)CCCCCCCCC)CC(=O)N(CCCCCCCCCCCC)CC(N)=O)CC(CC)CCCC)CC(CC)CCCC (stereo not shown) [Compound 88] (For-[Gly(N-dodecyl)][Gly(N-(3-decanoyloxypropyl))][N(2-ethylhexyl)Gly][Gly(N-3-morpholinopropyl)][N(2-ethylhexyl)Gly][Gly(N-(3-decanoyloxypropyl))][Gly(N-dodecyl)]-NH2)", "mRNA", "yes (1)"),
    ("CCCCCCCCCCCC(=O)OCCCN(CC(=O)N(CCCOC(=O)CCCCCCCCCCC)CC(=O)N(CCCCCC)CC(=O)N(CCCOC(=O)CCCCCCCCCCC)CC(=O)N(CCCOC(=O)CCCCCCCCCCC)CC(=O)N(CCCCCC)CC(N)=O)C(=O)CN(C=O)CCCN1CCOCC1 [Compound 71] (For-[Gly(N-3-morpholinopropyl)][N(3-lauroyloxypropyl)Gly][N(3-lauroyloxypropyl)Gly][NHexGly][N(3-lauroyloxypropyl)Gly][N(3-lauroyloxypropyl)Gly][NHexGly]-NH2)", "mRNA", "yes (1)"),
]

[in] Determine if CCCCCCCC(=O)OCCCN(CC(=O)N(CCc1ccccc1)CC(=O)N(CC(=O)N(CCCN1CCOCC1)CC(=O)N(CC(=O)N(CCc1ccccc1)CC(=O)N(CCCOC(=O)CCCCCCC)CC(=O)N(CC(N)=O)CC(CC)CCCC)CC(CC)CCCC)CC(CC)CCCC)C(=O)CN(C=O)CC(CC)CCCC (stereo not shown) [Compound 124] shows mean percent encapsulation of RNA strictly lower than 80%.
[out] no (0)

[in] Determine if CCCCCCCCCCN(CC(=O)N(CCSSCC(CC)CCCC)CC(=O)N(CCCOC(=O)CCCCCCC)CC(N)=O)C(=O)CN(CCSSCC(CC)CCCC)C(=O)CN(CCCOC(=O)CCCCCCC)C(=O)CN(CC(CC)CCCC)C(=O)CNC(CO)CO (stereo not shown) [Compound 130] (H-[N(CH(CH2OH)2)Gly][N(2-ethylhexyl)Gly][Gly(N-(CH2)3O-octanoyl)][X1][NDecylGly][X1][Gly(N-(CH2)3O-octanoyl)]-NH2) shows mean percent encapsulation of RNA strictly lower than 80%.
[out] no (0)

[in] Determine if CCCCCCCCCC(=O)OCCCN(CC(N)=O)C(=O)CN(CC(CC)CCCC)C(=O)CN(CCCOC(=O)CCCCCCCCC)C(=O)CN(CCCOC(=O)CCCCCCCCC)C(=O)CN(CCCOC(=O)CCCCCCCCC)C(=O)CN(CC(CC)CCCC)C(=O)CNC(CO)CO (stereo not shown) [Compound 103] (H-[N(CH(CH2OH)2)Gly][N(2-ethylhexyl)Gly][Gly(N-(3-decanoyloxypropyl))][Gly(N-(3-decanoyloxypropyl))][Gly(N-(3-decanoyloxypropyl))][N(2-ethylhexyl)Gly][Gly(N-(3-decanoyloxypropyl))]-NH2) shows mean percent encapsulation of RNA strictly lower than 80%.
[out] yes (1)

[in] Determine if CCCCCCCCCC(=O)OCCCN(CC(=O)N(CC(N)=O)CC(CC)CCCC)C(=O)CN(CCCCCCCC)C(=O)CN(CC(CC)CCCC)C(=O)CN(CCCOC(=O)CCCCCCCCC)C(=O)CN(CCCCCCCC)C(=O)CNCCCn1ccnc1 (stereo not shown) [Compound 111] (H-[N(3-imidazol-1-ylpropyl)Gly][N(octyl)Gly][Gly(N-(3-decanoyloxypropyl))][N(2-ethylhexyl)Gly][N(octyl)Gly][Gly(N-(3-decanoyloxypropyl))][N(2-ethylhexyl)Gly]-NH2) shows mean percent encapsulation of RNA strictly lower than 80%.
[out] yes (1)

[in] Determine if CCCCCCCCCC(=O)OCCCN(CC(=O)N(CC(=O)N(CCCCCC)CC(=O)N(CCCOC(=O)CCCCCCCCC)CC(=O)N(CC(=O)N(CCCCCC)CC(N)=O)CC(CC)CCCC)CC(CC)CCCC)C(=O)CNC(CO)CO (stereo not shown) [Compound 55] (H-[N(CH(CH2OH)2)Gly][Gly(N-(3-decanoyloxypropyl))][N(2-ethylhexyl)Gly][NHexGly][Gly(N-(3-decanoyloxypropyl))][N(2-ethylhexyl)Gly][NHexGly]-NH2) shows mean percent encapsulation of RNA strictly lower than 80%.
[out] yes (1)

[in] Determine if CCCCCCCCCC(=O)OCCCN(CC(=O)N(CC(N)=O)CC(CC)CCCC)C(=O)CN(CCCCCCCC)C(=O)CN(CC(CC)CCCC)C(=O)CN(CCCOC(=O)CCCCCCCCC)C(=O)CN(CCCCCCCC)C(=O)CN(C=O)CCCN1CCOCC1 (stereo not shown) [Compound 110] (For-[Gly(N-3-morpholinopropyl)][N(octyl)Gly][Gly(N-(3-decanoyloxypropyl))][N(2-ethylhexyl)Gly][N(octyl)Gly][Gly(N-(3-decanoyloxypropyl))][N(2-ethylhexyl)Gly]-NH2) shows mean percent encapsulation of RNA strictly lower than 80%.
[out] yes (1)
